Molecular target: Cystic fibrosis transmembrane conductance regulator (Homo sapiens, UniProt P13569, F508DEL)
Sequence (P13569 as listed by the source): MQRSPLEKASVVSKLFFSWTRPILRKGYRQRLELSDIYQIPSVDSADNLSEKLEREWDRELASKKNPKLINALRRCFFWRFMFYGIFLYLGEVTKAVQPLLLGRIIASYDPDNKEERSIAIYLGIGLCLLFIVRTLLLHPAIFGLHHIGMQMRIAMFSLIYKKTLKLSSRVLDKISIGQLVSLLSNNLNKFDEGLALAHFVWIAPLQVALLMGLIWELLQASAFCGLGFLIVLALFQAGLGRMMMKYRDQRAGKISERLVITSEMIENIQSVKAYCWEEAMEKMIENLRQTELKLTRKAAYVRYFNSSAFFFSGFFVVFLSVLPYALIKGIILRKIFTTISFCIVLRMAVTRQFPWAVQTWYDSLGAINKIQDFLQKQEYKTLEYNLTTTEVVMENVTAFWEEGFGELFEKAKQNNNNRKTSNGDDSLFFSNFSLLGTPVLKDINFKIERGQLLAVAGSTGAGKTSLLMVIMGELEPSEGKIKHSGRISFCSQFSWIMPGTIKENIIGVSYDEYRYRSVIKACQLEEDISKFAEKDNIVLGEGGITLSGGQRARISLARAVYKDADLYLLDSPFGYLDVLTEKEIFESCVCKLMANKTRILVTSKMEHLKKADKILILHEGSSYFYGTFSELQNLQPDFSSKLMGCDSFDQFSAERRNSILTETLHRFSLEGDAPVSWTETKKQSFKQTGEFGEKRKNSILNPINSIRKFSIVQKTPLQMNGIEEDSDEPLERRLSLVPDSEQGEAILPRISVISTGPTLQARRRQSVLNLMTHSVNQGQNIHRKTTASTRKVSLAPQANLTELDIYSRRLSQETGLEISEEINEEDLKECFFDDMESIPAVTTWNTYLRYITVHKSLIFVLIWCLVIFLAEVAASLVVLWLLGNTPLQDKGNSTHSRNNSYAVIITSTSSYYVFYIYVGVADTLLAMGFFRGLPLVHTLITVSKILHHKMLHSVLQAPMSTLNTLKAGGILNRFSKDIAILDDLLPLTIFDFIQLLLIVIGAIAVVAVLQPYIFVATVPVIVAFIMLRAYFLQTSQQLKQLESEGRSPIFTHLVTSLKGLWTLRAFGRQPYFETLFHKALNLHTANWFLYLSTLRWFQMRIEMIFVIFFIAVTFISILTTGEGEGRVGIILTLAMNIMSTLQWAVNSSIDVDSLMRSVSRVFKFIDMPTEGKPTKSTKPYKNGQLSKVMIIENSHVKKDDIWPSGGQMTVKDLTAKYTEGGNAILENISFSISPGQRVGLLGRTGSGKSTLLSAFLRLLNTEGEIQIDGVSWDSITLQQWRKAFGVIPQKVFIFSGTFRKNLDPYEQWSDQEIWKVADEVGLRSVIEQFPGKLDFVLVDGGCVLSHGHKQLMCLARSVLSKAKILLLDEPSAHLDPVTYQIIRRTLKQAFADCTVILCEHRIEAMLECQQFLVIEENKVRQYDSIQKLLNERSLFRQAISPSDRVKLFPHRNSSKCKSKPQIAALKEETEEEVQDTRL
Experiment: Potentiation of CFTR F508 deletion mutant (unknown origin) expressed in CFBE41o- cells coexpressing HS-YFP assessed as increase in iodide influx measuring HS-YFP quenching incubated for 20 mins in presence of forskolin by fluorescent method
pEC50: −log10 of the molar value.
reported property: pEC50

1 = CCOC(=O)Cc1csc(N(CC)C(=O)c2ccc(I)cc2)n1
2 = CCOC(=O)Cc1csc(N(CC)C(=O)c2ccc(Cl)cc2)n1
Query: Which value of pEC50 is smaller, the one for 1 or the one for 2 ? Answer by quoting the chosen item's label.
Response: 1
